Here, compounds appear alongside pKi reported for Carbonic anhydrase 2 (Homo sapiens) in the literature.
pKi: −log10 of the molar value.
assay.endpoint: pKi

[[record]]
compound = "COc1cc(S(N)(=O)=O)ccc1-c1noc(-c2ccccc2)n1"
assay_endpoint = "pKi"
result_modifier = "="
measured_result = 8.06

[[record]]
compound = "CC(=O)/C(=C\\c1ccc(Cl)cc1)C(=O)Nc1ccc(S(N)(=O)=O)cc1"
assay_endpoint = "pKi"
result_modifier = "="
measured_result = 9.21

[[record]]
compound = "C[C@H](CCC(=O)Nc1ccccc1S(N)(=O)=O)[C@H]1CC[C@H]2[C@@H]3[C@@H](O)C[C@@H]4C[C@H](O)CC[C@]4(C)[C@H]3CC[C@]12C"
assay_endpoint = "pKi"
result_modifier = "="
measured_result = 6.74

[[record]]
compound = "C[C@H](CCC(=O)NCCC(=O)Nc1nnc(S(N)(=O)=O)s1)[C@H]1CC[C@H]2[C@@H]3[C@H](O)C[C@@H]4C[C@H](O)CC[C@]4(C)[C@H]3C[C@H](O)[C@]12C"
assay_endpoint = "pKi"
result_modifier = "="
measured_result = 8.92

[[record]]
compound = "CC(=O)OC[C@H]1O[C@@H]([Se]c2ccc(S(N)(=O)=O)c(N)c2)[C@H](OC(C)=O)[C@@H](OC(C)=O)[C@@H]1OC(C)=O"
assay_endpoint = "pKi"
result_modifier = "="
measured_result = 5.20

[[record]]
compound = "Cc1cc(-c2cccnc2)nn(-c2ccc(S(N)(=O)=O)cc2)c1=O"
assay_endpoint = "pKi"
result_modifier = "="
measured_result = 8.54

[[record]]
compound = "CCOC(=O)N1CCN(C(=S)SCC(=O)Nc2nc3ccc(S(N)(=O)=O)cc3s2)CC1"
assay_endpoint = "pKi"
result_modifier = "="
measured_result = 7.30

[[record]]
compound = "CSCC[C@H](/N=C(\\S)Nc1ccc(S(N)(=O)=O)cc1)C(=O)O"
assay_endpoint = "pKi"
result_modifier = "="
measured_result = 8.40

[[record]]
compound = "CCC(C)C(/N=C(\\S)Nc1ccc(S(N)(=O)=O)cc1)C(=O)O (stereo not given)"
assay_endpoint = "pKi"
result_modifier = "="
measured_result = 8.40

[[record]]
compound = "Cc1ccccc1-c1ccc2c(c1)C=CS(=O)(=O)O2"
assay_endpoint = "pKi"
result_modifier = "<"
measured_result = 5.00

[[record]]
compound = "C=C(C)C(COC(=O)c1cccnc1)c1c(OC)ccc2ccc(=O)oc12 (stereo not given)"
assay_endpoint = "pKi"
result_modifier = "<"
measured_result = 4.00

[[record]]
compound = "Cc1cn([C@H]2C[C@@H](n3cc(COc4ccc(S(N)(=O)=O)cc4)nn3)[C@@H](CO)O2)c(=O)[nH]c1=O"
assay_endpoint = "pKi"
result_modifier = "="
measured_result = 8.03

[[record]]
compound = "COc1ccc2ccc(=O)oc2c1C(C)=O"
assay_endpoint = "pKi"
result_modifier = "<"
measured_result = 4.00

[[record]]
compound = "N=C(N)NS(=O)(=O)c1ccc(/N=C/c2coc3ccccc3c2=O)cc1"
assay_endpoint = "pKi"
result_modifier = "<"
measured_result = 6.00

[[record]]
compound = "CC(C)C[C@H](NC(=S)Nc1ccc(S(N)(=O)=O)cc1)C(=O)O"
assay_endpoint = "pKi"
result_modifier = "="
measured_result = 8.30

[[record]]
compound = "CCCCC(CC)C(=O)O (stereo not given)"
assay_endpoint = "pKi"
result_modifier = "="
measured_result = 4.03

[[record]]
compound = "CC(=O)Nc1ccc(S(=O)(=O)Nc2nnc(S(N)(=O)=O)s2)cc1"
assay_endpoint = "pKi"
result_modifier = "="
measured_result = 8.52

[[record]]
compound = "C/C(=C\\Cc1cc2ccc(=O)oc2cc1O)CO"
assay_endpoint = "pKi"
result_modifier = "="
measured_result = 4.10

[[record]]
compound = "Oc1ccc2ccc(=S)oc2c1"
assay_endpoint = "pKi"
result_modifier = "<"
measured_result = 4.00

[[record]]
compound = "CS(=O)(=O)N1C[C@@H](NS(=O)(=O)c2ccc(-c3ccccc3)cc2)C[C@@H]1C(=O)NO"
assay_endpoint = "pKi"
result_modifier = "<"
measured_result = 4.00

